target: Luciferin 4-monooxygenase (Photinus pyralis); experiment: Primary firefly luciferase (FLuc) qHTS assay for identification of artifact compounds. (AID 1845220); conditions: purified firefly luciferase, luminescence, 5 min; series mostly up to 54.1 µM; also: nearly all actives have a fitted effect of over 60% in size
Active and inactive are the calls of the source. Calls follow the shape of the dose curve; as a rule, active = well fitted inhibition curve with a large enough effect; inconclusive = small, poorly fitted or top-dose-only effect; inactive = flat fitted curve, though single readings scatter.
TEST_READOUT: outcome

[[record]]
molecule = "COC1CC(O[C@H]2CC[C@@]3(C)C(CCC4C3[C@H](OC(C)=O)[C@@H](OC(=O)/C=C/c3ccccc3)[C@]3(C)C(C(C)=O)CC[C@]43O)C2)OC(C)C1OC1CC(OC)C(OC2CC(OC)C(OC3OC(C)C(OC4OC(CO)C(O)C(O)C4O)C(OC)C3O)C(C)O2)C(C)O1 (stereo partly drawn)"
measurement = "inactive [at 11.6 µM]"

[[record]]
molecule = "C/C=C(\\C)C(=O)O[C@@H]1CC2[C@@H](CC=C3C[C@@H](O[C@H]4C[C@H](OC)[C@H](O[C@H]5C[C@H](OC)[C@H](O[C@@H]6O[C@H](C)[C@@H](O[C@H]7C[C@H](OC)[C@H](O[C@@H]8O[C@H](CO)[C@@H](O)[C@H](O)[C@H]8O)[C@@H](C)O7)[C@H](OC)[C@H]6O)[C@@H](C)O5)[C@@H](C)O4)CC[C@@]32C)[C@@]2(O)CC[C@H](C(C)=O)[C@@]12C (stereo partly drawn)"
measurement = "inactive [at 11.6 µM]"

[[record]]
molecule = "CC(=O)N[C@H]1[C@H](O[C@H]2CC[C@@]3(C)C(CC[C@]4(C)C3CC=C3[C@@H]5CC(C)(C)CC[C@]5(C(=O)OC5OCC(O)C(O)C5O)CC[C@]34C)C2(C)C)O[C@H](COC2OC(C)C(O)C(OC3OC(C)C(O)C(O)C3O)C2O)[C@@H](O)[C@@H]1O (stereo partly drawn)"
measurement = "inactive [at 11.6 µM]"


----------
tested on: C33A; assay: Primary qHTS to identify gynecologic anti-cancer compounds using libraries of approved drugs and bioactive compounds (AID 1345084); conditions: Gynecologic cancer cell panel viability, ATPlite luminescence, 48 h; series mostly up to 57.5 µM; also: % is scaled to controls: 0 for no effect and ±100 for the full control effect; nearly all actives have a fitted effect of over 55% in size
Results filed as inconclusive are left out. Activity calls are given as the source filed them. Calls follow the shape of the dose curve; as a rule, active = well fitted cell-killing curve with a large enough effect; inconclusive = small, poorly fitted or top-dose-only effect, or effect the other way; inactive = flat fitted curve, though single readings scatter.
TEST_READOUT: activity change, negative = cytotoxicity

Solved cases below.
[[record]]
molecule = "C=C1C(O)C[C@@H]2C(C(=O)O)=CO[C@@H](O[C@@H]3O[C@H](CO)[C@@H](O)[C@H](O)[C@H]3OC(=O)c3ccc(O)cc3)[C@H]12 (stereo partly specified)"
measurement = "inactive"

[[record]]
molecule = "O=C(c1ccc2nccnc2c1)N1CCCCC1"
measurement = "inactive"

[[record]]
molecule = "Cc1cccc(C)c1OCc1cc(C(=O)N2CCC(c3ccncc3)CC2)no1"
measurement = "inactive"

[[record]]
molecule = "COc1ccc2cc(C(C)C(=O)Oc3ccc(C(N)=S)cc3)ccc2c1 (stereo unspecified)"
measurement = "inactive"

[[record]]
molecule = "COc1ccc(-c2cnc3ccc(NCc4ccc(S(N)(=O)=O)cc4)nn23)cc1OC"
measurement = "inactive"


Query: # query: activity change, negative = cytotoxicity of entry CC1(C)CC[C@]2(C(=O)O[C@@H]3O[C@H](CO[C@@H]4O[C@H](CO)[C@@H](O)[C@H](O)[C@H]4O[C@@H]4O[C@H](CO)[C@@H](O)[C@H](O)[C@H]4O)[C@@H](O)[C@H](O[C@@H]4O[C@H](CO)[C@@H](O)[C@H](O)[C@H]4O)[C@H]3O)CC[C@]3(C)C(=CCC4[C@@]5(C)CC[C@@H](O)[C@@](C)(C(=O)O[C@@H]6O[C@H](CO)[C@@H](O)[C@H](O)[C@H]6O)C5CC[C@]43C)[C@@H]2C1 (stereo partly specified)
Reply: -23% [at 6.55 µM] (inactive)

Data origin: PubChem BioAssay (NCATS)
